Target Or System: OATP1B1*1a (Homo sapiens, UniProt Q9Y6L6)
Assay Text: inhibition of rosuvastatin uptake in OATP1B1*1a-HEK293T cells, LC/MS
Type: cell-based
Measured Attribute: IC50 (µM)
Give bare numbers, in µM.

INPUT: For the compound shown here, C[C@H]1[C@H](C)CC[C@]2(C(=O)O)CC[C@]3(C)C(=CC[C@@H]4[C@@]5(C)CC[C@H](O)C(C)(C)[C@@H]5CC[C@]43C)[C@H]12 [UA, 3b-hydroxy-urs-12-en-28-oic-acid] , give the reported IC50.
OUTPUT: 6.25

src = paper PMC4142139
